testedTarget: T1, secretory phospholipase A2 (sPLA2) (Homo sapiens, UniProt P14555 P14555:21-144)
T1 sequence: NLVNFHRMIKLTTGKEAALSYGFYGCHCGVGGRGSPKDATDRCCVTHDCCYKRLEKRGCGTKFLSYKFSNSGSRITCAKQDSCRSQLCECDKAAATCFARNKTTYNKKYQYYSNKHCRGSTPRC
methodSummary: filter; TBSC, 37 C
conditionLabel: tags: supplied by Eli Lilly
Checkbox rule: Kd lower than 40 nM = rule met; Kd not lower than 40 nM = rule not met.

## Task Problem: For the binder NS14 (ssRNA, 2'-NH2 all C and U) RNA: GGGAGGACGAUGCGGAAAUGUGUUAGUGAAUGAUUGAGAGAAGAUAGAUGAUGUUGAAGUCUGGCCAGACGACUCGCCCGA , is Kd under 40 nM?
## Result rule met

## Task Problem: For the binder NS39 (ssRNA, 2'-NH2 all C and U) RNA: GGGAGGACGAUGCGGGUAGGGAUGAAGUGCGAUGUGAAUCCGGGUGCUAGCGAUGAUGUGUGCCCCAGACGACUCGCCCGA , is Kd under 40 nM?
## Result rule met

## Task Problem: For the binder GGGAAAAGAAGACCGGCCGGCGCCAUAGCCGAGAUCCGAGGUGUUGA (ssRNA, 2'-NH2 all C and U) [NN19.4] , is Kd under 40 nM?
## Result rule met

## Task Problem: For the binder NS18 (ssRNA, 2'-NH2 all C and U) RNA: GGGAGGACGAUGCGGAAGUAGAUGAUGGAUUGAGAUGUAAGUGUCAGUAUGAAGAGUCUCUGGGCCAGACGACUCGCCCGA , is Kd under 40 nM?
## Result rule not met
